# assay-comment: urinary excretion in fasting rats after a single oral dose
# Format: in vivo
# experimental-setup: rat, urine, single oral dose of 50 mg/kg, after 24 hours, read-out: Recovery rates in the urine
attribute-measured: dose excreted at 24 h (%)

[[record]]
compound = "COn1cc(C(=O)O)c(=O)c2c3sc(=O)n(C)c3ccc21 [Compound A]"
value_units = "%"
quantitative_readout = 2


* * *

Measured MIC of individual entries
# System: Escherichia coli NIHJ
# assay-comment: in vitro antibacterial activity, tube dilution method
# Format: cell-based
# experimental-setup: Escherichia coli NIHJ; tube dilution method; read-out: In vitro Antibacterial Activities
attribute-measured: MIC (µg/mL)

[[record]]
compound = "C=CCOn1cc(C(=O)O)c(=O)c2c3sc(=O)n(CC=C)c3ccc21"
limit_qualifier = "="
quantitative_readout = 100

[[record]]
compound = "COn1cc(C(=O)O)c(=O)c2c3sc(=O)n(C)c3ccc21"
limit_qualifier = "="
quantitative_readout = 0.2

[[record]]
compound = "O=C(O)c1cn(OCc2ccccc2)c2ccc3c(sc(=O)n3Cc3ccccc3)c2c1=O"
limit_qualifier = ">"
quantitative_readout = 200

[[record]]
compound = "CCn1cc(C(=O)O)c(=O)c2c3sc(=O)n(C)c3ccc21 [Compound D, reference compound]"
limit_qualifier = "="
quantitative_readout = 0.2


* * *

# Tested on: Klebsiella pneumoniae PCI 602
# assay-comment: in vitro antibacterial activity, tube dilution method
# Assay type: cell-based
# experimental-setup: PCI602; Klebsiella pneumoniae PCI 602; tube dilution method; read-out: In vitro Antibacterial Activities
attribute-measured: MIC (µg/mL)

[[record]]
molecule = "COn1cc(C(=O)O)c(=O)c2c3sc(=O)n(C)c3ccc21"
value_units = "µg/mL"
limit_qualifier = "="
quantitative_readout = 0.2

[[record]]
molecule = "C=CCOn1cc(C(=O)O)c(=O)c2c3sc(=O)n(CC=C)c3ccc21"
value_units = "µg/mL"
limit_qualifier = "="
quantitative_readout = 200

[[record]]
molecule = "CCn1cc(C(=O)O)c(=O)c2c3sc(=O)n(C)c3ccc21 [Compound D, reference compound]"
value_units = "µg/mL"
limit_qualifier = "="
quantitative_readout = 0.2

[[record]]
molecule = "O=C(O)c1cn(OCc2ccccc2)c2ccc3c(sc(=O)n3Cc3ccccc3)c2c1=O"
value_units = "µg/mL"
limit_qualifier = ">"
quantitative_readout = 200

